Exercise: state measured growth inhibition for each of the compounds provided.
Assay: NCI Yeast Anticancer Drug Screen. Data for the sgs1 mgt1 strain (AID 161);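 note: 0% = growth of cultures given vehicle only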
Measurement setup: S. cerevisiae sgs1 mgt1 strain, at 50.0 µM, active compounds read high
About 79,000 compounds went through this panel and 15% of them were active in at least one assay; those are over-represented in the sample as a whole. Activity calls are given as the source filed them. Cut-off read from the data, not from the text of the source: active = growth inhibition above about 70%; inactive = the rest.

Ask: Please give the measured growth inhibition for this compound: O[C@H](CNCCS)[C@@H](O)CNCCS
Reply: 80.1% (active)

Ask: Please give the measured growth inhibition for this compound: Cc1cccc2nc3nc(Cl)c(Cl)nc3n12
Reply: 64.5% (inactive)

Ask: Please give the measured growth inhibition for this compound: Cc1c(Cl)cccc1NC(=O)/C(Cl)=C(\Cl)C(=O)O
Reply: 99.7% (active)

Ask: Please give the measured growth inhibition for this compound: CC1(Cc2ccccc2)CCCC(C=O)C1=O.[Cu+2] (configuration not stated)
Reply: 94.7% (active)

Ask: Please give the measured growth inhibition for this compound: COc1cccc2c1C(=O)c1c(O)c(CCl)cc(O)c1C2=O
Reply: 95.2% (active)

Ask: Please give the measured growth inhibition for this compound: O=C(O)C1CCC(CC2CC3CCC2C3)CC1 (configuration not stated)
Reply: 41.8% (inactive)

Ask: Please give the measured growth inhibition for this compound: CCCCCCC(C)OC(=O)c1ccccc1C(=O)O (configuration not stated)
Reply: 17.9% (inactive)

###

Assay: NCI Yeast Anticancer Drug Screen. Data for the cln2 rad14 strain (AID 165);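 note: 0% = growth equal to vehicle treated cultures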
Measurement setup: S. cerevisiae cln2 rad14 strain, at 50.0 µM, active compounds read high
This is part of a sample that, as a whole, favours compounds with a hit. Of some 79,000 tested, about 15% had one in any assay.
Parameter measured: growth inhibition (%)
Write the value in % as a bare number.

Ask: Please give the measured growth inhibition for this molecule: O=C(CNc1ccc(Cl)cc1)Nn1c(-c2ccccc2)nc2ccccc2c1=O
Reply: 45.2

Ask: Please give the measured growth inhibition for this molecule: Fc1ccc(NC(=S)SCc2ccco2)cc1
Reply: 42.5

Ask: Please give the measured growth inhibition for this molecule: CCN(CC)CC(O)c1ccc(/C=C/c2ccc(Cl)cc2)cc1 (centres undefined)
Reply: 98.7

Ask: Please give the measured growth inhibition for this molecule: [Ce+3].[Cl-].[O-]/N=C(\c1ccccc1)c1ccccn1.[O-]/N=C(\c1ccccc1)c1ccccn1.[O-]/N=C(\c1ccccc1)c1ccccn1
Reply: 76.7

Ask: Please give the measured growth inhibition for this molecule: C[n+]1c(-c2ccc(/C=N\NC(=O)c3cccc(C(=O)N/N=C/c4ccc(-c5cn6ccccc6[n+]5C)cc4)c3)cc2)cn2ccccc21
Reply: 97.7

Ask: Please give the measured growth inhibition for this molecule: C=C(C)C(CC=C(C)C)Cc1c(O)cc(OC)c2c1OC(c1ccc(O)cc1O)C(O)C2=O (centres undefined)
Reply: 43.9

Ask: Please give the measured growth inhibition for this molecule: O=C(O)C1C(c2ccccc2)=C1c1ccccc1
Reply: 57.8

Ask: Please give the measured growth inhibition for this molecule: CC(=O)/C(=C\c1c(Cl)cccc1Cl)C(=O)CCN(C)C
Reply: 41.2

Ask: Please give the measured growth inhibition for this molecule: CCC(C1SC(=S)NC1=O)C1SC(=S)NC1=O (centres undefined)
Reply: 82.9

Ask: Please give the measured growth inhibition for this molecule: CC(=O)/C(=C\c1ccc(Cl)cc1Cl)C(=O)CCN(C)C
Reply: 76

Ask: Please give the measured growth inhibition for this molecule: N#CC1=C(C#N)Sc2nc3cc(Cl)ccc3nc2S1
Reply: 20.6

Ask: Please give the measured growth inhibition for this molecule: OC(CBr)c1cc(-c2ccccc2)nc2ccccc12 (centres undefined)
Reply: -24.7

Ask: Please give the measured growth inhibition for this molecule: CCC(C)c1ccc(O)c(C(C)c2ccccc2)c1 (centres undefined)
Reply: 90.3

Ask: Please give the measured growth inhibition for this molecule: O=C1C=CC(=O)C1=Cc1ccc(Cl)c(Cl)c1
Reply: 99.2

Ask: Please give the measured growth inhibition for this molecule: COc1ccc([N+](=O)[O-])cc1NC(=O)Nc1ccc(C(=O)OCC(C)C)cc1
Reply: 57

Ask: Please give the measured growth inhibition for this molecule: O=C1OC(c2ccccc2)(c2ccccc2)CC1CN1CCOCC1 (centres undefined)
Reply: 66

Ask: Please give the measured growth inhibition for this molecule: CCCCCCCCCCCC[S+](C)C
Reply: 41

Ask: Please give the measured growth inhibition for this molecule: COc1ccc(-c2c(C#N)c(S)n(NS(=O)(=O)c3ccc(C)cc3)c(=O)c2C#N)cc1
Reply: 20

Ask: Please give the measured growth inhibition for this molecule: COc1ccc(-c2cc(-c3ccc(OC)cc3OC)[n+](C)c(-c3ccc(OC)cc3OC)c2)cc1
Reply: 88.2

Ask: Please give the measured growth inhibition for this molecule: CN1/C(=C/C=C/C(I)=C/C=C/C2=[N+](C)c3ccccc3C2(C)C)C(C)(C)c2ccccc21
Reply: 79.4

Ask: Please give the measured growth inhibition for this molecule: Nc1nc(Cl)cc(Nc2ccc(Cl)c(Cl)c2)n1
Reply: 51.7

Ask: Please give the measured growth inhibition for this molecule: COc1cccc2c1C(=O)c1c(O)c3c(c(O)c1C2=O)CC(O)(C(C)=O)CC3OC1OC(COC(C)=O)C(OC(C)=O)C(OC(C)=O)C1OC(C)=O (centres undefined)
Reply: 97.2

Ask: Please give the measured growth inhibition for this molecule: COc1ccc(Cl)c(-c2cc(OC)c(N=N/C(=N/Nc3ccc([N+](=O)[O-])cc3)c3ccc([N+](=O)[O-])cc3)cc2Cl)c1
Reply: 50.2

Ask: Please give the measured growth inhibition for this molecule: Cc1ccc(Nc2nc3c(s2)C(=O)c2ccccc2C3=O)cc1
Reply: 97.8

Ask: Please give the measured growth inhibition for this molecule: O=[N+]([O-])/C(Cl)=C(\Sc1ccccc1)C(Cl)=C(Cl)Cl
Reply: 91.9

Ask: Please give the measured growth inhibition for this molecule: COc1ccc(/C=C/Cc2cc3c(cc2O)OCO3)cc1
Reply: 25.8

Ask: Please give the measured growth inhibition for this molecule: C1C[OH+]CC[OH+]CCNCC[OH+]CC[OH+]CCN1.[Cl-].[Pt+4]
Reply: 87.1

Ask: Please give the measured growth inhibition for this molecule: CC(C)CCOC(=O)Nc1cccc(Cl)c1
Reply: 13.2

Ask: Please give the measured growth inhibition for this molecule: OC1OCC(OCc2ccccc2)C(OCc2ccccc2)C1OCc1ccccc1 (centres undefined)
Reply: 81.5

Ask: Please give the measured growth inhibition for this molecule: COC(=O)c1ccc(-c2ccccc2)cc1
Reply: 44.2

Ask: Please give the measured growth inhibition for this molecule: C/C(=N/NC(=S)Nc1ccc(C)cc1)c1ccccn1
Reply: 88.3

Ask: Please give the measured growth inhibition for this molecule: NC(Cc1ccccc1)c1ccc2cccc3c2c1CC3 (centres undefined)
Reply: -4.25

Ask: Please give the measured growth inhibition for this molecule: CC1C/C(=C\c2ccc(O)c(O)c2)C(=O)/C(=C/c2ccc(O)c(O)c2)C1 (centres undefined)
Reply: 41

Ask: Please give the measured growth inhibition for this molecule: CC(C)/C(Cl)=N/OC(=O)Nc1ccc(OC(F)(F)F)cc1
Reply: 76.2

Ask: Please give the measured growth inhibition for this molecule: CC(C)C(CC(C)(C)C)OC(=O)Nc1cccc2ccccc12 (centres undefined)
Reply: 6.15

Ask: Please give the measured growth inhibition for this molecule: C#CC(=O)OCC#CCOC(=O)C#C
Reply: 49.2

Ask: Please give the measured growth inhibition for this molecule: CCC(c1ccc(Cl)cc1)C(C#N)c1ccc(Cl)cc1 (centres undefined)
Reply: 11.4

Ask: Please give the measured growth inhibition for this molecule: CCOC(=O)C1CCN(Cc2ccccc2)CC1=O (centres undefined)
Reply: 90.2

Ask: Please give the measured growth inhibition for this molecule: COc1ccc(C(CC(=O)c2ccccc2)Sc2ccccc2N)cc1 (centres undefined)
Reply: -13.3

Ask: Please give the measured growth inhibition for this molecule: Nc1ccc(Cl)c2c1C(=O)c1ccccc1C2=O
Reply: 46.6

Ask: Please give the measured growth inhibition for this molecule: CN(C)C(=S)S(=O)(=O)CCCCS(=O)(=O)C(=S)N(C)C
Reply: 9

Ask: Please give the measured growth inhibition for this molecule: CC(C)n1nnc2ccccc2c1=Nc1ccccc1
Reply: 91.3

Ask: Please give the measured growth inhibition for this molecule: C1CCC2[N-]CC3CCCCC3[N-]CC3CCCCC3[N-]CC3CCCCC3[N-]CC2C1.[Cl][Fe]([Cl])([Cl])[Cl].[Fe+6] (centres undefined)
Reply: 96.8

Ask: Please give the measured growth inhibition for this molecule: CC(=O)c1c(O)ccc2nc3ccccc3nc12
Reply: 82.8

###

Exercise: state measured growth inhibition for each of the compounds provided.
Assay: NCI Yeast Anticancer Drug Screen. Data for the sgs1 mgt1 strain (AID 161);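 note: 0% = growth of cultures given vehicle only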
Measurement setup: S. cerevisiae sgs1 mgt1 strain, at 5.0 µM (retest, dose inferred, filed as 0.5), active compounds read high
Protocol: Growth inhibition of yeast strains with defined genetic alterations is measured as a screen for potential anti-cancer activity. Selected strains with alterations in DNA damage repair or cell cycle control were exposed to compounds and growth inhibition was measured relative to vehicle treated controls. The strain used in this assay is sgs1 mgt1
Compounds without any hit were thinned out: in the full panel of roughly 79,000, 15% have a hit. The source made the active and inactive calls. Cut-off read from the data, not from the text of the source: active = growth inhibition above about 70%; inactive = the rest.

Ask: Please give the measured growth inhibition for this compound: CCCCN(CCCC)CCCC(O)c1c2ccc(Cl)cc2nc2ccc(OC)cc12 (centres undefined)
Reply: 26% (inactive)

Ask: Please give the measured growth inhibition for this compound: c1ccc2c(c1)oc1cc3c(cc12)CCCN3
Reply: 7% (inactive)

Ask: Please give the measured growth inhibition for this compound: COc1cccc(OC)c1C(=O)/C=C/c1ccccc1
Reply: 1% (inactive)

Ask: Please give the measured growth inhibition for this compound: Cc1cc(N/N=C(\c2ccccc2)c2ccccn2)nc2ccccc12
Reply: 14% (inactive)

Ask: Please give the measured growth inhibition for this compound: CC(=O)Oc1ccc2ccccc2c1CN(Cc1c(OC(C)=O)ccc2ccccc12)C(C)=O
Reply: 4% (inactive)

Ask: Please give the measured growth inhibition for this compound: O=C(NC1CCN(Cc2ccccc2)CC1)c1ccc(I)cc1
Reply: 52% (inactive)

Ask: Please give the measured growth inhibition for this compound: c1ccc2c3ccn4ccc5c6ccccc6[nH]c5c4c-3nc2c1
Reply: 27% (inactive)

Ask: Please give the measured growth inhibition for this compound: CCCSc1n[nH]c(=S)s1
Reply: -1% (inactive)

Ask: Please give the measured growth inhibition for this compound: Cc1cc(C(=O)O)c(C)c2c1sc1ccccc12
Reply: 12% (inactive)

Ask: Please give the measured growth inhibition for this compound: N#CC(C(=O)C(=O)NC1C2CC3CC(C2)CC1C3)c1c(Cl)cccc1Cl (centres undefined)
Reply: -1% (inactive)

Ask: Please give the measured growth inhibition for this compound: CC(C)N(C(=O)C12C3C4C5(C#N)C3C1(C#N)C5C42I)C(C)C (centres undefined)
Reply: 13% (inactive)

Ask: Please give the measured growth inhibition for this compound: COc1ccccc1C1C(Cl)C(=O)N1n1cnc2ccccc2c1=O (centres undefined)
Reply: -11% (inactive)

Ask: Please give the measured growth inhibition for this compound: CC(=O)C1CCCCC1/C=C/[N+](=O)[O-] (centres undefined)
Reply: 25% (inactive)

Ask: Please give the measured growth inhibition for this compound: Clc1cccc2c(-c3ccccc3)c3cccc(Cl)c3cc12
Reply: 8% (inactive)

Ask: Please give the measured growth inhibition for this compound: COc1ccc(/C(=N/NC(N)=O)C(c2ccc(OC)cc2)C2C(=O)Oc3ccccc32)cc1 (centres undefined)
Reply: -4% (inactive)

Ask: Please give the measured growth inhibition for this compound: c1ccc(CC(Nc2cccnc2)c2ccccc2)cc1 (centres undefined)
Reply: -2% (inactive)

Ask: Please give the measured growth inhibition for this compound: COC(=O)C1(Cc2ccccc2)Cc2c(C)ccc(C)c2C1=O (centres undefined)
Reply: 13% (inactive)

Ask: Please give the measured growth inhibition for this compound: CSC(SC)=C1C(=O)NC(Cc2ccccc2)C1=O (centres undefined)
Reply: 0% (inactive)

Ask: Please give the measured growth inhibition for this compound: CCCC(=O)c1cc(O)c(O)c(CN(C)Cc2cc(Cl)cc(C)c2O)c1O
Reply: -11% (inactive)

Ask: Please give the measured growth inhibition for this compound: Nc1nc(N)c(N=O)c(Nc2cccc(Br)c2)n1
Reply: 70% (active)

Ask: Please give the measured growth inhibition for this compound: COc1ccc(CC2c3cc4c(cc3CCN2C)OCO4)c(C=O)c1OC (centres undefined)
Reply: -1% (inactive)

Ask: Please give the measured growth inhibition for this compound: CCn1c(C)cc(=O)n1-c1ccc([N+](=O)[O-])cc1
Reply: -60% (inactive)

Ask: Please give the measured growth inhibition for this compound: Clc1nc(Cl)c(Cc2ccccc2)c(Cl)n1
Reply: 38% (inactive)

Ask: Please give the measured growth inhibition for this compound: Oc1cccc2ccc(/C=C/c3ccccn3)nc12
Reply: -6% (inactive)
